Assay: Evaluation of stability in liver microsome
Conditions: mouse liver microsome 0.25 mg/mL, test compound 1 μM, 37° C., 30 minutes
readout.kind: Remaining (%)

molecule	readout.kind	numeric.value
COCc1ccc(NC(=O)c2c(C#CCC(C)(C)O)n(C3(C)CC3)c3ncnc(N)c23)cc1	Remaining (%)	66
COCc1ccc(NC(=O)c2cn(C(C)(C)C)c3ncnc(N)c23)c(OC)c1	Remaining (%)	57
COCc1ccc(NC(=O)c2c(C#CC3CCN(C)CC3)n(C3(C)CC3)c3ncnc(N)c23)cc1	Remaining (%)	77
COCc1ccc(NC(=O)c2c(-c3cn[nH]c3)n(C3(C)CC3)c3ncnc(N)c23)cc1	Remaining (%)	80
COCc1ccc(NC(=O)c2c(C(C)O)n(C3(C)CC3)c3ncnc(N)c23)cc1 (stereo not shown)	Remaining (%)	83
COCc1ccc(NC(=O)c2c(C#Cc3cccnc3)n(C3(C)CC3)c3ncnc(N)c23)cc1	Remaining (%)	60
COCc1ccc(NC(=O)c2cn(C(C)(C)C)c3ncnc(N)c23)cc1	Remaining (%)	64
COCc1ccc(NC(=O)c2c(OCCN3CCCC3=O)n(C3(C)CC3)c3ncnc(N)c23)cc1	Remaining (%)	78
COCc1ccc(NC(=O)c2c(C#Cc3ccc4c(c3)NCCO4)n(C3(C)CC3)c3ncnc(N)c23)cc1	Remaining (%)	85
COCc1ccc(NC(=O)c2cn(C3(C)CC3)c3ncnc(N)c23)cc1F	Remaining (%)	58
COCc1ccc(NC(=O)c2c(C#Cc3cccc(F)c3)n(C3(C)CC3)c3ncnc(N)c23)cc1	Remaining (%)	84
COCc1ccc(NC(=O)c2cn(C3(C)CC3)c3ncnc(N)c23)cc1	Remaining (%)	73
COCc1ccc(NC(=O)c2c(C#Cc3ccccc3)n(C3(C)CC3)c3ncnc(N)c23)cc1	Remaining (%)	76
COCc1ccc(NC(=O)c2c(C#Cc3ccsc3)n(C3(C)CC3)c3ncnc(N)c23)cc1	Remaining (%)	70
COCc1ccc(NC(=O)c2c(C#CCC3CCCCC3)n(C3(C)CC3)c3ncnc(N)c23)cc1	Remaining (%)	80
COCc1ccc(NC(=O)c2c(C#Cc3ccccc3OC)n(C3(C)CC3)c3ncnc(N)c23)cc1	Remaining (%)	79

---

Assay: Evaluation of stability in liver microsome
Settings: mouse liver microsome 0.25 mg/mL, test compound 1 μM, 37° C., 30 minutes
readout.kind: Remaining (%)

compound	readout.kind	numeric.value
COCc1ccc(NC(=O)c2c(C#CC(C)(C)O)n(C3(C)CC3)c3ncnc(N)c23)cc1	Remaining (%)	72
COCc1ccc(NC(=O)c2cn(C(C)(C)C(F)F)c3ncnc(N)c23)cc1	Remaining (%)	53
COCc1ccc(NC(=O)c2c(C#Cc3ccc(N)nc3)n(C3(C)CC3)c3ncnc(N)c23)cc1	Remaining (%)	64
COCc1ccc(NC(=O)c2c(C#CCN3CCCC3)n(C3(C)CC3)c3ncnc(N)c23)cc1	Remaining (%)	59
COCc1ccc(NC(=O)c2c(C#Cc3cnc[nH]3)n(C3(C)CC3)c3ncnc(N)c23)cc1	Remaining (%)	53
COCc1ccc(NC(=O)c2c(C#Cc3cccc(NCc4ccncc4)c3)n(C3(C)CC3)c3ncnc(N)c23)cc1	Remaining (%)	62

a: CCn1cc(C#Cc2c(C(=O)Nc3ccc(COC)cc3)c3c(N)ncnc3n2C2(C)CC2)cn1
b: Nc1ncnc2c1c(C(=O)Nc1ccc(Oc3ccccc3)cc1)cn2C1CCCC1 [Compound 2 of Comparative Examples, reference compound]
Ask: Min Remaining (%)? a | b Return value: the label identifying the chosen record.
Reply: b
(b: 0%, a: 73%)
